- experimental.target: Tumour suppressor p53/oncoprotein Mdm2 (Homo sapiens, UniProt Q00987)
- Sequence (P04637 whole entry): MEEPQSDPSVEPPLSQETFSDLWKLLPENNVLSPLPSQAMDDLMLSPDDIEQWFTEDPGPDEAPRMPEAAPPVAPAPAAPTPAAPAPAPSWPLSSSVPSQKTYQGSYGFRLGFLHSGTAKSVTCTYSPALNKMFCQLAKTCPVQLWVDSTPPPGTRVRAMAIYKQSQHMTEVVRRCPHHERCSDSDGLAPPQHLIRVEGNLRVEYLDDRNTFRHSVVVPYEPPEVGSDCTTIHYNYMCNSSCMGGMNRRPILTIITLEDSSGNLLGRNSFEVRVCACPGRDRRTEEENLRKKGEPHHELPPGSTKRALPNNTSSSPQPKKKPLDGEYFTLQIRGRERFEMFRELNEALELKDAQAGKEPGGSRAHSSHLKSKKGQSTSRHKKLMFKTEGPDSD
- Sequence (Q00987 whole entry): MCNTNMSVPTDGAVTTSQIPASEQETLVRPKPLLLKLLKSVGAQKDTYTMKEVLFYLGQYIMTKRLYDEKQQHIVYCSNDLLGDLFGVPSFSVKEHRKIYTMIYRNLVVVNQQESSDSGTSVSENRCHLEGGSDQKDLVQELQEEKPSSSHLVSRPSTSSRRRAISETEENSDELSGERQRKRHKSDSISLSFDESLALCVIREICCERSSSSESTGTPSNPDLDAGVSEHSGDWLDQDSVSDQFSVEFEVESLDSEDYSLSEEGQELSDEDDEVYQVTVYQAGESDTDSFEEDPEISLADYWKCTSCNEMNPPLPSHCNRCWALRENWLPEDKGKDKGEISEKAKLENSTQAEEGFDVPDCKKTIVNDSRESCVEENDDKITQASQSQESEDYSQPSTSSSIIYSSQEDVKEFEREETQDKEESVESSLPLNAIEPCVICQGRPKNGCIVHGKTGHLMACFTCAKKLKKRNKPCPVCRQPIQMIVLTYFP
- method.summary: Inhibition of p53-MDM2 interaction by ELISA
Label key: y means IC50 under 200 µM; n means IC50 of 200 µM or more.

Observe how each entry below is paired with its result.
{"compound": "O=C1c2ccccc2C(N[C@@H](CO)[C@@H](O)c2ccccc2)(c2ccccc2)N1Cc1ccccc1 (stereo not given in full)", "experimental.target": "Tumour suppressor p53/oncoprotein Mdm2 (Homo sapiens, UniProt Q00987)", "label": "y"}
{"compound": "CCCN1C(=O)c2ccccc2C1(OCc1cc([N+](=O)[O-])c(C)c([N+](=O)[O-])c1)c1ccc(OCOCC[Si](C)(C)C)cc1 (stereo not given)", "experimental.target": "Tumour suppressor p53/oncoprotein Mdm2 (Homo sapiens, UniProt Q00987)", "label": "y"}
{"compound": "CC(NC1(c2ccccc2)c2ccccc2C(=O)N1Cc1ccccc1)C(O)c1ccc(O)cc1 (stereo not given)", "experimental.target": "Tumour suppressor p53/oncoprotein Mdm2 (Homo sapiens, UniProt Q00987)", "label": "y"}
{"compound": "C[Si](C)(C)CCOCOc1ccc(C2(OCCCO)c3ccccc3C(=O)N2Cc2ccccc2)cc1 (stereo not given)", "experimental.target": "Tumour suppressor p53/oncoprotein Mdm2 (Homo sapiens, UniProt Q00987)", "label": "n"}
{"compound": "O=C1c2ccccc2C(OCCc2ccccc2)(c2ccccc2)N1Cc1ccccc1 (stereo not given)", "experimental.target": "Tumour suppressor p53/oncoprotein Mdm2 (Homo sapiens, UniProt Q00987)", "label": "n"}
{"compound": "CCCOC1(c2ccccc2)c2ccccc2C(=O)N1Cc1ccc(OC)cc1 (stereo not given)", "experimental.target": "Tumour suppressor p53/oncoprotein Mdm2 (Homo sapiens, UniProt Q00987)", "label": "n"}

Switching to the query record.
Threshold test, IC50 < 200 µM: O=C1c2ccccc2C(=O)N1CCOC1(c2ccccc2)c2ccccc2C(=O)N1Cc1ccccc1 (stereo not given) y

---

Reported pIC50 by item:
- experimental.target: Tumour suppressor p53/oncoprotein Mdm2 (Homo sapiens)
- method.summary: Inhibition of p53-MDM2 interaction by ELISA
// returns pIC50 (minus log10 of molar concentration), number only

Example entries and their recorded answers appear below.
{"compound": "O=C1c2ccccc2C(=O)N1CCCOC1(c2ccccc2)c2ccccc2C(=O)N1Cc1ccccc1 (stereo not drawn)", "reading": 3.72}
{"compound": "CCCN1C(=O)c2ccccc2C1(OCCS(C)(=O)=O)c1ccc(C(C)(C)C)cc1 (stereo not drawn)", "reading": 3.54}
{"compound": "O=C1c2ccccc2C(OCCNC(=O)C(F)(F)F)(c2ccccc2)N1Cc1ccccc1 (stereo not drawn)", "reading": 3.39}
{"compound": "COc1ccc(CCOC2(c3ccccc3)c3ccccc3C(=O)N2Cc2ccccc2)cc1OC (stereo not drawn)", "reading": 3.51}
{"compound": "O=C1CCC(=O)N1CCOC1(c2ccccc2)c2ccccc2C(=O)N1Cc1ccccc1 (stereo not drawn)", "reading": 3.55}
{"compound": "CCCNC1(c2ccccc2)c2ccccc2C(=O)N1Cc1ccccc1 (stereo not drawn)", "reading": 3.70}

For the next question, use this compound.
Record request: pIC50 value, item CC(=O)NCCOC1(c2ccccc2)c2ccccc2C(=O)N1Cc1ccccc1 (stereo not drawn) 3.55

---

- experimental.target: Tumour suppressor p53/oncoprotein Mdm2 (Homo sapiens)
- method.summary: Inhibition of p53-MDM2 interaction by ELISA
Recorded IC50 split into classes band 1 = under 90 µM, band 2 = from 90 µM up to 200 µM, band 3 = 200 µM and over

Examples from the recorded data:
{"molecule": "CCCOC1(c2ccccc2)c2ccccc2C(=O)N1[C@@H](CCCCN)C(=O)OC (stereo partly drawn)", "label": "band 1"}
{"molecule": "COC(=O)C(Cc1ccc(O)cc1)N1C(=O)c2ccccc2C1(OCCn1c([N+](=O)[O-])cnc1C)c1ccccc1 (stereo not drawn)", "label": "band 3"}
{"molecule": "COC(=O)C(Cc1ccc(O)cc1)N1C(=O)c2ccccc2C1(OCCOC(C)=O)c1ccccc1 (stereo not drawn)", "label": "band 3"}
{"molecule": "NC(=O)COC1(c2ccccc2)c2ccccc2C(=O)N1Cc1ccccc1 (stereo not drawn)", "label": "band 3"}

Which category fits this record: O=Cc1ccc(COC2(c3ccccc3)c3ccccc3C(=O)N2Cc2ccccc2)o1 (stereo not drawn) band 2

Hello team, could you let me know which band the following molecule falls into: Cc1ccc([N+](=O)[O-])c(COC2(c3ccccc3)c3ccccc3C(=O)N2Cc2ccccc2)c1 (stereo not drawn) band 3

---

- experimental.target: Tumour suppressor p53/oncoprotein Mdm2 (Homo sapiens, UniProt Q00987)
- method.summary: Inhibition of p53-MDM2 interaction by ELISA
pIC50: −log10 of the molar value.
pIC50: recorded values

{"compound": "CCCOC1(c2ccccc2)c2ccccc2C(=O)N1Cc1ccccc1 (stereo unspecified)", "reading": "< 3.70"}
{"compound": "O=C1c2ccccc2C(NCCO)(c2ccccc2)N1Cc1ccccc1 (stereo unspecified)", "reading": "< 3.30"}
{"compound": "CCCOC1(c2ccccc2)c2ccccc2C(=O)N1CCO (stereo unspecified)", "reading": "< 3.30"}
{"compound": "O=C1c2ccccc2C(OCCN2CCOCC2)(c2ccccc2)N1Cc1ccccc1 (stereo unspecified)", "reading": "< 3.30"}
{"compound": "O=C1c2ccccc2C(OCc2ccco2)(c2ccccc2)N1Cc1ccccc1 (stereo unspecified)", "reading": "< 3.30"}

Consider the compound shown here: COC(=O)COC1(c2ccccc2)c2ccccc2C(=O)N1Cc1ccccc1 (stereo unspecified) What is its recorded pIC50? < 3.30

---

Readings of IC50 for the listed compounds
- experimental.target: Tumour suppressor p53/oncoprotein Mdm2 (Homo sapiens)
- method.summary: Inhibition of p53-MDM2 interaction by ELISA
Only the number, expressed in µM, is required.

{"compound": "COC(=O)C(Cc1ccc(O)cc1)N1C(=O)c2ccccc2C1(OCCN(CCC#N)c1ccccc1)c1ccccc1 (configuration not stated)", "IC50 (µM)": 88}
{"compound": "CCCN1C(=O)c2ccccc2C1(OCCc1ccc(O)cc1)c1ccc(C(C)(C)C)cc1 (configuration not stated)", "IC50 (µM)": 69.7}
{"compound": "O=C1c2ccccc2C(OCc2ccc(Cl)c([N+](=O)[O-])c2)(c2ccccc2)N1Cc1ccccc1 (configuration not stated)", "IC50 (µM)": 206}
{"compound": "CCCN1C(=O)c2ccccc2C1(OCc1cc2c(cc1[N+](=O)[O-])OCO2)c1ccc(C(C)(C)C)cc1 (configuration not stated)", "IC50 (µM)": 70.2}
{"compound": "O=C1c2ccccc2C(OCc2cccc([N+](=O)[O-])c2)(c2ccccc2)N1Cc1ccccc1 (configuration not stated)", "IC50 (µM)": 284}

Any idea what its IC50 is? The compound is CCCOC1(c2ccccc2)c2ccccc2C(=O)N1[C@H](C(=O)OC)c1ccc(O)cc1 (some centres not stated) 90

Recorded IC50 of C=C(C)C(=O)OCCN1C(=O)c2ccccc2C1(N[C@@H](CO)[C@@H](O)c1ccccc1)c1ccccc1 (some centres not stated) , please. 103

What value of IC50 has been recorded for this entry: O=C1c2ccccc2C(NC(CO)C(O)c2ccccc2)(c2ccccc2)N1Cc1ccccc1 (configuration not stated) 85

Any idea what IC50 was measured for C=C(C)C(=O)OCCNC1(c2ccccc2)c2ccccc2C(=O)N1Cc1ccccc1 (configuration not stated) ? 353

So what does the record say about IC50 for O=C1c2ccccc2C(NCC(O)c2ccc(O)cc2)(c2ccccc2)N1Cc1ccccc1 (configuration not stated) ? 227

Suppose we examine the compound CN(CCOC1(c2ccccc2)c2ccccc2C(=O)N1Cc1ccccc1)c1ccc(C=O)cc1 (configuration not stated) ; what IC50 value has been reported? 191
